Source listed as PubChem BioAssay AID720706.

Quick reference for OD600 change among some molecules
# Assay remarks: GFP drop in mixed WT/humanized-ribosome E. coli culture – GFP/RFP fluorescence, OD600, single point, bacterial rRNA inhibitor project, primary screen (AID 720706)
# Condition parameters: E. coli WT GFP vs humanized-ribosome RFP mutants, 24 h; measured here: OD600 growth, DMSO median 0, no signal -100
Screen size: about 350,000 compounds; about 5,500 (1.6%) were called active. What follows is part of a selection rich in actives, with near analogues and random picks from the rest.
Write down the numeric answer in % and omit the unit.

molecule=O=C(c1ccncc1)N1CC(=O)N2[C@H](CO)[C@H](c3ccc(-c4ccccc4F)cc3)[C@@H]2C1 numeric_result=-1.79
molecule=CO[C@H]1CN(C)C(=O)c2cc(NC(=O)c3cnccn3)ccc2OC[C@H](C)N(C(=O)C2CC2)C[C@H]1C numeric_result=-0.758
molecule=O=C(C[C@@H]1C[C@H]2c3cc(NS(=O)(=O)c4ccc(F)cc4)ccc3O[C@H]2[C@H](CO)O1)NC1CCCC1 numeric_result=-4.87
molecule=CCCN(C)C[C@@H]1OCCCC[C@H](C)Oc2ccc(NS(=O)(=O)c3ccc(C)cc3)cc2C(=O)N([C@H](C)CO)C[C@@H]1C numeric_result=-4.83
molecule=O=C(c1cccc(F)c1)N1C[C@H]2[C@@H](c3ccccc31)[C@@H](CO)N2C(=O)Cc1ccccc1 numeric_result=9.86

Per the record, COc1ccc(O)c(C(=O)c2cnc3c(c2)c(-c2ccc(F)cc2)c(C#N)c(=O)n3C)c1 has OD600 change of 6.31

The reported OD600 change of the molecule Cc1cc(C)c2c(-c3ccc(F)cc3)c(C#N)c(=O)n(C)c2n1 was 5.62

For CC=Cc1ccc2n(c1=O)C[C@@H]1[C@@H](CO)[C@H](C(=O)NCCc3ccccc3)N(C(C)=O)[C@H]21 (mixture of isomers) the molecule record lists OD600 change as 2.27
